Item-by-item account of IC50, plaque-reduction neutralization of hMPV TN/93-32
Target: hMPV F protein of hMPV TN/93-32 (genotype B) (human metapneumovirus)
Test: cell-based or functional assay
Number in µg/mL, nothing else.

Below are worked cases with known answers.
MPV491 (antibody, V domains shown) VH: QVQLQESGPGLVKSSQTLSLTCTVSGGSISSVTSHWTWIRQHPGKGLEWIGYIFSSGTTYYSPSLRSRLTMSVDTSKNQFSLQLSSVTAADTAMYYCARGIYCGDSCYKGTDYWGRGTLVTVSS VL: IRLMTQTPVTLPVTPGEPASISCRSSQSLLHSNGYNYLDWYLQKPGQSPQLLIYRGSTRASGVPDRFSGSGSGTEFTLKISRVEAEDVGVYYCMQGLQTPYTFGQGTKLESR	1.9
MPV477 (antibody, V domains shown) VH: EVQLVQSGAEVKKPGASVEVSCKTSGYTFTDYYLHWVRQAPGQGLEWMGWINPRSGGTKYGQKFQGRVTMTRDTSISTAYMDLRGLRSDDTAVYYCARAPLLTVYAVAHRSGENRFDPWGQGTVTVSS VL: QPPSLSGAPGQTVTISCTGSGSNIGAGYDVNWYQCLPGTAPKLLMFDNSNRPSGVPDRFSGSRSGASASLAITGLQAEDEADYYCQSYDSGLSGWVFGGGTKLTVL	2.9

Exam item: Indicate its recorded IC50, plaque-reduction neutralization of hMPV TN/93-32; the binder in question is MPV467 (antibody, V domains shown) VH: EVQLVESGGGVVRPGTSLRVSCAAFDFNFRDYGMHWVRQAPGKGLEWVAGIWYDGSNKDYADSVKGRFTISRDNSQNTLYLQMNSLRVEDTAVYYCARDPRTHREGALSHFDSWGQGTLVTVSS VL: PNELTQDPAVSVALGQTVRITCQGDSLRNYFAGWYQQKPGQAPLLVLYGENIRPSGIPDRFSGSSSGNTVSLTITGAQAEDEADYYCNSRDNSGNHWVFGGGTRLTVL
Marked response: 0.0006
